Each item that follows carries a reported Hepatotoxicity (steatosis).
RECORDED CONDITIONS: human
Write the value as a bare number.

C[C@]12COC(=O)C[C@@H]1CC[C@@H]1[C@@H]2CC[C@@]2(C)[C@H]1CC[C@]2(C)O [OXANDROLONE] :: 0
Nc1cc(N2CCCCC2)nc(N)[n+]1[O-] [MINOXIDIL] :: 0
COC(=O)c1nc2cc(Cl)c3cccnc3c2o1 [QUAZOLAST] :: 0
CS(=O)(=O)c1ccc([C@@H](O)[C@@H](CO)NC(=O)C(Cl)Cl)cc1 [THIAMPHENICOL] :: 0
COc1ccc2c(C(=O)c3ccc(Cl)cc3)c(C)n(CC(=O)O)c2c1 [CLOMETACIN] :: 0
Sc1ncnc2nc[nH]c12 [MERCAPTOPURINE ANHYDROUS] :: 0
C[C@H](CCc1ccccc1)NC[C@H](O)c1ccc(O)c(C(N)=O)c1 [DILEVALOL] :: 0
CCCCC(CC)COC(=O)CC(C(=O)OCC(CC)CCCC)S(=O)(=O)O (centres undefined) [DOCUSATE] :: 0

We next turn to a different molecule, shown below.
query: Query: Hepatotoxicity (steatosis); subject: Nc1nc(N)nc(Nc2ccc([As]3SCC(CO)S3)cc2)n1 (centres undefined) [MELARSOPROL]
result: 0

====

RECORDED CONDITIONS: human, serum
Listed below: Hepatotoxicity (moderate) values for each entry.
Could you respond with only the numeric value?

Sample records with Hepatotoxicity (moderate):
CC1=C(C(=O)O)N2C(=O)[C@@H](NC(=O)[C@H](N)C3=CCC=CC3)[C@H]2SC1 :: 1
Cc1onc(-c2c(Cl)cccc2Cl)c1C(=O)N[C@@H]1C(=O)N2[C@@H]1SC(C)(C)[C@@H]2C(=O)O :: 2
CN1CCN2c3ncccc3Cc3ccccc3C2C1 (configuration not stated) :: 2
Cc1cc(C)cc(OCC2CNC(=O)O2)c1 (configuration not stated) :: 0
O=C1C(O)=C([C@H]2CC[C@H](c3ccc(Cl)cc3)CC2)C(=O)c2ccccc21 :: 9

query: Please give the measured Hepatotoxicity (moderate) for this molecule: CC(C)(O/N=C(\C(=O)N[C@@H]1C(=O)N2C(C(=O)[O-])=C(C[n+]3ccccc3)CS[C@H]12)c1csc(N)n1)C(=O)O
result: 77

query: Same thing, different molecule: COc1ccc(/C=C/C(=O)Nc2ccccc2C(=O)O)cc1OC
result: 6

query: What about this molecule? CC1(C)O[C@@H]2[C@@H](CO[C@@]3(COS(N)(=O)=O)OC(C)(C)O[C@@H]23)O1 [TOPIRAMATE]
result: 1

query: Now this one: C[C@@H]1C[C@H]2[C@@H]3CCC4=CC(=O)C=C[C@]4(C)[C@@]3(F)[C@@H](O)C[C@]2(C)[C@@]1(O)C(=O)CO
result: 2

query: Param item: O=C(CCCN1CCC(O)(c2ccc(Br)cc2)CC1)c1ccc(F)cc1
result: 0

query: What about this molecule? CC(C)(C)NC(=O)[C@@H]1C[C@@H]2CCCC[C@@H]2CN1C[C@@H](O)[C@H](Cc1ccccc1)NC(=O)[C@H](CC(N)=O)NC(=O)c1ccc2ccccc2n1
result: 7

query: Also check O=C(COCC(=O)Nc1c(I)cc(I)c(C(=O)O)c1I)Nc1c(I)cc(I)c(C(=O)O)c1I
result: 1
